Test: Caco-2 monolayer A to B permeability of marker compounds, standardized conditions (Experiment One)
Settings: human, Caco-2, pH 7.4
QUANTITY KIND: Papp A→B at 90 min, 100 μM (×10⁻⁶ cm/s)
Numbers only; they are read as ×10⁻⁶ cm/s.

>  <MOLECULE>
OC[C@@H](O)[C@@H](O)[C@H](O)[C@H](O)CO

>  <U>
×10⁻⁶ cm/s

>  <Papp A→B at 90 min, 100 μM>
0.461

$$$$

In the following, a different molecule is considered.
Query: May I ask what Papp A→B at 90 min, 100 μM has been recorded for CC(C)NCC(O)COc1cccc2ccccc12 (centres unmarked) ?
Response: 28.7

* * *

Test: Caco-2 transepithelial transport at different apical pH, buffers and CO2 incubation (Experiment Two)
Assay type: in vitro ADME
Details: human; Caco-2, apical pH 6.5
QUANTITY KIND: efflux ratio at 90 min, 100 μM
# print the numeric value only

>  <COMPOUND>
CC[C@]1(O)C[C@@H]2CN(CCc3c([nH]c4ccccc34)[C@@](C(=O)OC)(c3cc4c(cc3OC)N(C)[C@H]3[C@@](O)(C(=O)OC)[C@H](OC(C)=O)[C@]5(CC)C=CCN6CC[C@]43[C@@H]65)C2)C1 [vinblastine]

>  <OBSERVED VALUE>
32

$$$$

Query: efflux ratio at 90 min, 100 μM for COc1cc([C@@H]2c3cc4c(cc3[C@@H](O[C@@H]3O[C@@H]5CO[C@@H](C)O[C@H]5[C@H](O)[C@H]3O)[C@H]3COC(=O)[C@H]23)OCO4)cc(OC)c1O [etoposide] ?
Response: 12

* * *

Each entry below lists one item and its recorded increase of A→B permeability with apical FaSSIF value.
Tested on: Caco-2
Test: Caco-2 transepithelial transport with apical FaSSIF versus Mes (Experiment Three)
Format: in vitro ADME
Details: Caco-2, apical FaSSIF pH 6.5 compared with Mes pH 6.5
// note: answer is a bare numeric in fold

# count of solved cases: 3
>  <COMPOUND>
COc1cc([C@@H]2c3cc4c(cc3[C@@H](O[C@@H]3O[C@@H]5CO[C@@H](C)O[C@H]5[C@H](O)[C@H]3O)[C@H]3COC(=O)[C@H]23)OCO4)cc(OC)c1O [etoposide]

>  <U>
fold

>  <OBSERVED VALUE>
2

$$$$
>  <COMPOUND>
NC(=O)c1ncn([C@@H]2O[C@H](CO)[C@@H](O)[C@H]2O)n1 [ribavirin]

>  <U>
fold

>  <OBSERVED VALUE>
5

$$$$
>  <COMPOUND>
OC[C@@H](O)[C@@H](O)[C@H](O)[C@H](O)CO [mannitol]

>  <U>
fold

>  <OBSERVED VALUE>
3

$$$$

We now examine a further compound.
Query: Which increase of A→B permeability with apical FaSSIF value is on record for Nc1nc2c(ncn2COCCO)c(=O)[nH]1 [acyclovir] ?
Response: 3
